Test system: Staphylococcus aureus ATCC 29213
protocolDetails: Antibacterial killing, 96-well turbidimetric (modified vCC) assay
Assay type: cell-based
particulars: Table S3; concentration at which 100% killing occurred, no bacterial regrowth; No = not active
Experimental: The antibacterial activity of defensin mimetics against Staphylococcus aureus ATCC 29213 and Escherichia coli 25922 was carried out in a 96-well turbidimetric assay essentially as described previously with the following modifications: bacteria were exposed for 30 min to compounds in 10 mM phosphate buffer containing 5% DMSO prior to addition of 2× Muller-Hinton medium. Bacterial growth was monitored for 12 hours and data were analyzed as described. […]
endpoint: active against S.aureus (IC100%) (µM)
The answer is to be given in µM; state only the numeric part.

// Cc1cc2ccccc2n1C=CC1=[N+](C)c2ccccc2C1(C)C [4431/1] : active against S.aureus (IC100%) value = 250

The reported active against S.aureus (IC100%) of the compound Cc1cc(C2c3ccccc3-c3ccccc32)cc(C)c1O [610995/1, 4-(9H-fluoren-9-yl)-2,6-dimethylphenol] was 125
